- measurement conditions: pH 2.7
Marks after values point to notes of the source that are not given here.
log p values by entry
observed property: log p

[
  {
    "compound": "CCOCCn1cc(-c2ccncc2)c(-c2ccc(F)s2)n1",
    "value reported": "1.43^[b]"
  },
  {
    "compound": "CCn1cc(-c2ccnc(NC(=O)C3CCC3)c2)c(-c2ccc(Cl)s2)n1",
    "value reported": "2.92^[b]"
  },
  {
    "compound": "Clc1ccc(-c2nn(C3CCCC3)cc2-c2ccncc2)s1",
    "value reported": "2.25^[b]"
  },
  {
    "compound": "CC(C)Cn1cc(-c2ccncn2)c(-c2ccc(Cl)s2)n1",
    "value reported": "3.31^[b]"
  },
  {
    "compound": "CC(C)(C)Cn1cc(-c2ccncc2)c(-c2ccc(Cl)s2)n1",
    "value reported": "2.39^[b]"
  },
  {
    "compound": "Clc1ccc(-c2nn(CCN3CCOCC3)cc2-c2ccncc2)s1",
    "value reported": "0.52^[b]"
  },
  {
    "compound": "Cn1cc(-c2ccnc(NC(=O)c3ccsc3)c2)c(-c2ccc(Cl)s2)n1",
    "value reported": "2.88^[b]"
  },
  {
    "compound": "CC(C)CC(C)n1ncc(-c2ccncc2)c1-c1ccc(Cl)s1 (stereo not drawn)",
    "value reported": "2.42^[b]"
  },
  {
    "compound": "FC(F)(F)Cn1cc(-c2ccncc2)c(-c2ccc(Br)s2)n1",
    "value reported": "1.98^[b]"
  }
]

----------
- measurement conditions: pH 2.7
Marks after values point to notes of the source that are not given here.
log p values by entry
observed property: log p

[
  {
    "molecule": "CC(C)Cn1cc(-c2ccncc2)c(-c2sccc2Cl)n1 [Example 159]",
    "value reported": "1.62^[b]"
  },
  {
    "molecule": "CCC(C)n1cc(-c2ccncc2)c(-c2ccc(Cl)s2)n1 (stereo not drawn) [Example 8]",
    "value reported": "2.1^[b]"
  },
  {
    "molecule": "CC1(Cn2cc(-c3ccncc3)c(-c3ccc(F)s3)n2)CC1(Cl)Cl (stereo not drawn) [Example 342]",
    "value reported": "2.39^[b]"
  },
  {
    "molecule": "Cn1cc(-c2ccnc(NC(=O)Cc3ccccc3)c2)c(-c2ccc(Cl)s2)n1 [Example 277]",
    "value reported": "3.06^[b]"
  },
  {
    "molecule": "Fc1cccc(Cn2cc(-c3ccncc3)c(-c3cc4ccsc4s3)n2)c1F [Example 327]",
    "value reported": "1.75^[b]"
  },
  {
    "molecule": "Cn1cc(-c2ccnc(N)c2)c(-c2ccc(Cl)s2)n1 [Example 305]",
    "value reported": "1.34^[b]"
  },
  {
    "molecule": "CCC(=O)Nc1cc(-c2c(-c3ccc(Cl)s3)nn(C)c2C)ccn1 [Example 170]",
    "value reported": "2.32^[b]"
  },
  {
    "molecule": "CC(C)n1cc(-c2ccncc2)c(-c2cccs2)n1 [Example 300]",
    "value reported": "1.27^[b]"
  },
  {
    "molecule": "CC(C)Nc1nccc(-c2cn(CCC#N)nc2-c2ccc(Cl)s2)n1 [Example 140]",
    "value reported": "2.15^[b]"
  }
]

----------
- measurement conditions: pH 7.8
Marks after values point to notes of the source that are not given here.

[
  {
    "cpd smiles": "CCCc1c(-c2ccncc2)c(-c2sccc2C)nn1C",
    "log p": "2.59^[c];"
  },
  {
    "cpd smiles": "CCC(=O)Nc1cc(-c2cn(C(C)C)nc2-c2cccs2)ccn1",
    "log p": "2.61^[c];"
  },
  {
    "cpd smiles": "CCC(=O)Nc1cc(-c2c(-c3ccc(Cl)s3)nn(C(C)C)c2C)ccn1",
    "log p": "3.76^[c];"
  },
  {
    "cpd smiles": "CCn1nc(-c2ccc(Cl)s2)c(-c2ccncc2)c1C",
    "log p": "3.08^[c];"
  },
  {
    "cpd smiles": "CCCc1c(-c2ccnc(NC(=O)CC)c2)c(-c2sccc2C)nn1C",
    "log p": "2.71^[c];"
  },
  {
    "cpd smiles": "CCC(=O)Nc1cc(-c2c(-c3ccc(Cl)s3)nn(CC)c2C)ccn1",
    "log p": "3.1^[c];"
  },
  {
    "cpd smiles": "Cc1c(-c2ccncc2)c(-c2ccc(Cl)s2)nn1C",
    "log p": "2.62^[c];"
  },
  {
    "cpd smiles": "[O-][n+]1ccc(-c2c[nH]nc2-c2ccc(Cl)s2)cc1Cl",
    "log p": "1.57^[c]"
  },
  {
    "cpd smiles": "Cc1c(-c2ccncc2)c(-c2ccc(Cl)s2)nn1C(C)C",
    "log p": "3.8^[c];"
  },
  {
    "cpd smiles": "CCC(=O)Nc1cc(-c2c(-c3ccc(Cl)s3)nn(C)c2C)ccn1",
    "log p": "2.68^[c];"
  }
]

----------
- measurement conditions: pH 2.7
Marks after values point to notes of the source that are not given here.

[
  {
    "molecule": "CC(=O)n1cc(-c2ccncc2)c(-c2ccc(Cl)s2)n1",
    "log p": "2.04^[b]"
  },
  {
    "molecule": "Clc1ccc(-c2nn(Cc3ccccc3)cc2-c2ccncn2)s1",
    "log p": "3.41^[b]"
  },
  {
    "molecule": "CCC(=O)Nc1cc(-c2cn(C(C)CC)nc2-c2ccc(Cl)s2)ccn1 (stereo not shown)",
    "log p": "3.19^[b]"
  },
  {
    "molecule": "CCC(=O)Nc1cc(-c2cn(CC)nc2-c2ccc(Cl)s2)ccn1",
    "log p": "2.4^[b]"
  },
  {
    "molecule": "FC(F)Cn1cc(-c2ccncc2)c(-c2ccc(Br)s2)n1",
    "log p": "1.67^[b]"
  },
  {
    "molecule": "FCCn1cc(-c2ccncc2)c(-c2ccc(Br)s2)n1",
    "log p": "1.49^[b]"
  },
  {
    "molecule": "Fc1ccc(-c2nn(C3CCCC3)cc2-c2ccncc2)s1",
    "log p": "2.02^[b]"
  },
  {
    "molecule": "CC(=O)N(C(C)=O)c1cc(-c2cn(/C=C/F)nc2-c2ccc(Cl)s2)ccn1",
    "log p": "3.09^[b]"
  },
  {
    "molecule": "CCn1cc(-c2ccncc2)c(-c2ccc(F)s2)n1",
    "log p": "1.28^[b]"
  },
  {
    "molecule": "CCn1cc(-c2ccnc(NC(=O)[C@H](C)O)c2)c(-c2ccc(Cl)s2)n1",
    "log p": "2.37^[b]"
  },
  {
    "molecule": "CC(C)n1cc(-c2ccnc(NC(=O)CC3CC3)c2)c(-c2ccc(Cl)s2)n1",
    "log p": "3.37^[b]"
  },
  {
    "molecule": "CC(C)Cn1nc(-c2ccc(Cl)s2)c(-c2ccncc2)c1Br",
    "log p": "3.58^[b]"
  },
  {
    "molecule": "CCn1cc(-c2ccnc(NC(=O)C(C)C)c2)c(-c2ccc(Cl)s2)n1",
    "log p": "2.77^[b]"
  },
  {
    "molecule": "C=CCn1cc(-c2ccncc2)c(-c2ccc(F)s2)n1",
    "log p": "1.54^[b]"
  },
  {
    "molecule": "COc1ccc(Cn2nc(-c3ccc(Cl)s3)c(-c3ccncc3)c2C2CC2)cc1",
    "log p": "2.69^[b]"
  },
  {
    "molecule": "CCOC(=O)n1cc(-c2ccncc2)c(-c2ccc(Cl)s2)n1",
    "log p": "1.97^[b]"
  },
  {
    "molecule": "FC(F)Cn1cc(-c2ccncc2)c(-c2cc(Cl)cs2)n1",
    "log p": "1.42^[b]"
  },
  {
    "molecule": "CC(C)Cn1cc(-c2ccncc2)c(-c2cc(Cl)cs2)n1",
    "log p": "1.87^[b]"
  },
  {
    "molecule": "Cc1c(-c2ccncc2)c(-c2ccc(Cl)s2)nn1C(C)C",
    "log p": "2.07^[b]"
  }
]

----------
- assay text: physchem
- measurement conditions: pH 2.7
# log p >= 3 gives 1, anything below gives 0

[
  {
    "compound": "CC(C)Cn1cc(-c2ccnc(Cl)c2)c(-c2ccc(Cl)s2)n1",
    "answer label": 1
  },
  {
    "compound": "CCn1cc(I)c(-c2cc(C)cs2)n1",
    "answer label": 1
  },
  {
    "compound": "CCn1cc(-c2ccncc2)c(-c2cccs2)n1",
    "answer label": 0
  },
  {
    "compound": "CCC(C)n1ccc(-c2cccs2)n1 (stereo not shown)",
    "answer label": 1
  },
  {
    "compound": "CC(C)Nc1nccc(C(=CN(C)C)C(=O)c2ccc(Cl)s2)n1",
    "answer label": 0
  },
  {
    "compound": "Brc1ccc(-c2n[nH]cc2-c2ccncc2)s1",
    "answer label": 0
  },
  {
    "compound": "CCCn1cc(I)c(-c2cccs2)n1",
    "answer label": 1
  },
  {
    "compound": "CC(C)n1nc(-c2ccc(Cl)s2)c(-c2ccncc2)c1C1CC1",
    "answer label": 0
  },
  {
    "compound": "CCC(C)n1nccc1-c1cc(C)cs1 (stereo not shown)",
    "answer label": 1
  },
  {
    "compound": "CC(C)n1ncc(-c2ccncc2)c1-c1ccc(Cl)s1",
    "answer label": 0
  },
  {
    "compound": "CCC(C)n1cc(-c2ccncc2)c(-c2ccc(F)s2)n1 (stereo not shown)",
    "answer label": 0
  },
  {
    "compound": "CCCn1nccc1-c1cccs1",
    "answer label": 0
  },
  {
    "compound": "CN(C)C=CC(=O)c1cc(Br)cs1",
    "answer label": 0
  },
  {
    "compound": "CN(C)C=CC(=O)c1cc(Br)c(Br)s1",
    "answer label": 0
  },
  {
    "compound": "Clc1ccc(-c2n[nH]cc2-c2ccncc2)s1",
    "answer label": 0
  },
  {
    "compound": "Brc1cc(-c2cc[nH]n2)sc1Br",
    "answer label": 0
  },
  {
    "compound": "Clc1csc(-c2cc[nH]n2)c1",
    "answer label": 0
  },
  {
    "compound": "CC(C)n1nc(C2CC2)c(-c2ccncc2)c1-c1ccc(Cl)s1",
    "answer label": 0
  },
  {
    "compound": "CCC(C)n1nc(-c2ccc(Cl)s2)c(-c2ccncc2)c1Cl (stereo not shown)",
    "answer label": 1
  },
  {
    "compound": "CC(C)n1cc(-c2ccncc2)c(-c2ccc(Cl)s2)n1",
    "answer label": 0
  },
  {
    "compound": "CCC(C)n1cc(-c2ccncc2)c(-c2ccc(Cl)s2)n1 (stereo not shown)",
    "answer label": 0
  },
  {
    "compound": "CC(C)n1nccc1-c1cc(Br)c(Br)s1",
    "answer label": 1
  }
]

Numbers sourced from patent US8685974B2.
